target: T1, human CD33 (human, UniProt P20138 18-364); experiment: flow cytometry, human primary macrophages;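 note: binding of CD33 antibodies at 10 µg/ml to human primary macrophages, 1 h on ice, detected with PE-labelled secondary antibody by flow cytometry, reported as MFI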
T1 construct: CD33 on human primary dendritic cells, macrophages, monocytes and T cells and on CHO cells expressing recombinant human CD33; also called Siglec-3; hCD33
T1 sequence (P20138 18-364): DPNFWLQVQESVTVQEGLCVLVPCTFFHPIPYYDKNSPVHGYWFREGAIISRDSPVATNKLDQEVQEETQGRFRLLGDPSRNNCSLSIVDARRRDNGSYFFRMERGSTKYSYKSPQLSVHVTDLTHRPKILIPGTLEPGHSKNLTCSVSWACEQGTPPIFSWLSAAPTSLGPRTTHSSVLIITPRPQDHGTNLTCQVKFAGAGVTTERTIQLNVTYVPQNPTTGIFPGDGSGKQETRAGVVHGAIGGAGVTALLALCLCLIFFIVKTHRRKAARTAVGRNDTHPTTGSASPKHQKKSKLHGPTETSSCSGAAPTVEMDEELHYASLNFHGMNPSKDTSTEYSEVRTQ
Measure: Macrophage MFI

{"columns": ["Binder", "Macrophage MFI"],
 "data": [
  ["C-34 (antibody, V domains shown, human IgG1) VH: EVQLVESGGGLVQPGGSLRLSCAASGFTFSSYWMSWVRQAPGKGLEWVANINQDGSEKYYVDSVKGRFTISRDNAKNSLYLQMNSLRAEDTAVYYCARDHGATGPDFDLWGRGTLVTVSS VL: DIQMTQSPSSLSASVGDRVTITCRASQSISSYLNWYQQKPGKAPKLLIYGASSLQSGVPSRFSGSGSGTDFTLTISSLQPEDFATYYCQQQYLTPLTFGGGTKVEIK", 862]
]}

Please examine the following record next.
IN: I have this binder here, C-39 (antibody, V domains shown, human IgG1) VH: QLQLQESGPGLVKPSETLSLTCTVSGGSISSSSYYWGWIRQPPGKGLEWIGSIYYSGSTYYNPSLKSRVTISVDTSKNQFSLKLSSVTAADTAVYYCAREGVRGMDVWGQGTTVTVSS VL: EIVLTQSPGTLSLSPGERATLSCRASQSVSSSYLAWYQQKPGQAPRLLIYGASSRATGIPDRFSGSGSGTDFTLTISRLEPEDFAVYYCQQFAFLPPTFGGGTKVEIK , and I need its recorded Macrophage MFI.
OUT: 802
